# test.protocol: APR_HepG2_MitoMass_24hr: Apredica 24-hour HepG2 Assay for Mitochondrial Mass (AID 2282912)
# recorded.conditions: high-content imaging, actives raise or lower the signal
Activity calls are given as the source filed them. Rule for the calls: active = hit-call score of the fitted dose curve at least 0.9, where 1 is the maximum; inactive = score below 0.9.
observation.type: AC50

- molecule: "CNC(C)=O"
  observation.type: "AC50"
  result: "inactive"
- molecule: "O=C1CN(N=Cc2ccc([N+](=O)[O-])o2)C(=O)N1"
  observation.type: "AC50"
  result: "inactive"
- molecule: "CCCCCCCC/C=C\\CCCCCCCC(=O)OC[C@@H](O)[C@H]1OC[C@H](O)[C@H]1O"
  observation.type: "AC50"
  result: "inactive"
- molecule: "NC(=O)NN=Cc1ccc([N+](=O)[O-])o1"
  observation.type: "AC50"
  result: "inactive"
- molecule: "OCCOCCOCCO"
  observation.type: "AC50"
  result: "inactive"
- molecule: "CCCCCCCCCC"
  observation.type: "AC50"
  result: "inactive"
- molecule: "CCCCC(CC)C(=O)OCCOCCOCCOC(=O)C(CC)CCCC (stereo not given)"
  observation.type: "AC50"
  result: "inactive"
- molecule: "O=c1[nH]cnc2c1ncn2[C@H]1CC[C@@H](CO)O1"
  observation.type: "AC50"
  result: "inactive"
- molecule: "NC(=O)N1c2ccccc2C=Cc2ccccc21"
  observation.type: "AC50"
  result: "inactive"
- molecule: "Cc1nccn1-c1ccc(Sc2cccc(C3(C(N)=O)CCOCC3)c2)cc1"
  observation.type: "AC50"
  result: "19.8 µM (active)"
- molecule: "CC[C@H](C)C(=O)O[C@H]1C[C@H](O)C=C2C=C[C@H](C)[C@H](CC[C@@H](O)C[C@@H](O)CC(=O)O)[C@H]21"
  observation.type: "AC50"
  result: "inactive"
- molecule: "CCc1cccc(CC)c1N"
  observation.type: "AC50"
  result: "inactive"
- molecule: "CCCOc1ccc(S(=O)(=O)N2CCN(CC)CC2)cc1-c1nc2c(CC)n(Cc3ccccn3)nc2c(=O)[nH]1"
  observation.type: "AC50"
  result: "inactive"
- molecule: "c1ccc2ncccc2c1"
  observation.type: "AC50"
  result: "inactive"
- molecule: "CCc1ccc(O)c(C(C)(C)C)c1"
  observation.type: "AC50"
  result: "105 µM (active)"
- molecule: "Cn1c(=O)c2[nH]cnc2n(C)c1=O"
  observation.type: "AC50"
  result: "inactive"
- molecule: "OC[C@H]1O[C@@H]2O[C@H]3[C@H](O)[C@@H](O)[C@@H](O[C@H]4[C@H](O)[C@@H](O)[C@@H](O[C@H]5[C@H](O)[C@@H](O)[C@@H](O[C@H]6[C@H](O)[C@@H](O)[C@@H](O[C@H]7[C@H](O)[C@@H](O)[C@@H](O[C@H]1[C@H](O)[C@H]2O)O[C@@H]7CO)O[C@@H]6CO)O[C@@H]5CO)O[C@@H]4CO)O[C@@H]3CO"
  observation.type: "AC50"
  result: "inactive"
- molecule: "CCCCCCCC1CCC(=O)O1 (stereo not given)"
  observation.type: "AC50"
  result: "inactive"
- molecule: "NC(=O)N(O)[C@@H]1COc2cc(OCc3ccccc3)ccc21"
  observation.type: "AC50"
  result: "inactive"
- molecule: "CCN(CC)C(=S)SSC(=S)N(CC)CC"
  observation.type: "AC50"
  result: "26.1 µM (active)"
- molecule: "CCCCN1C(=O)[C@@H]([C@H](O)C2CCCCC2)NC(=O)C12CCN(Cc1ccc(Oc3ccc(C(=O)O)cc3)cc1)CC2"
  observation.type: "AC50"
  result: "inactive"
- molecule: "CCCC(CCC)C(=O)O"
  observation.type: "AC50"
  result: "inactive"
- molecule: "COS(C)(=O)=O"
  observation.type: "AC50"
  result: "inactive"
- molecule: "CCCCCOC(C)=O"
  observation.type: "AC50"
  result: "inactive"
- molecule: "COCc1nnc(-c2ccc[n+]([O-])c2)n1-c1c(Cl)c(Cl)cc2[nH]c(=O)c(=O)[nH]c12"
  observation.type: "AC50"
  result: "inactive"

----------
# subject.of.test: Hepatocyte nuclear factor 6 (Homo sapiens) (UniProt Q9UBC0)
# Sequence (Q9UBC0 whole entry, looked up): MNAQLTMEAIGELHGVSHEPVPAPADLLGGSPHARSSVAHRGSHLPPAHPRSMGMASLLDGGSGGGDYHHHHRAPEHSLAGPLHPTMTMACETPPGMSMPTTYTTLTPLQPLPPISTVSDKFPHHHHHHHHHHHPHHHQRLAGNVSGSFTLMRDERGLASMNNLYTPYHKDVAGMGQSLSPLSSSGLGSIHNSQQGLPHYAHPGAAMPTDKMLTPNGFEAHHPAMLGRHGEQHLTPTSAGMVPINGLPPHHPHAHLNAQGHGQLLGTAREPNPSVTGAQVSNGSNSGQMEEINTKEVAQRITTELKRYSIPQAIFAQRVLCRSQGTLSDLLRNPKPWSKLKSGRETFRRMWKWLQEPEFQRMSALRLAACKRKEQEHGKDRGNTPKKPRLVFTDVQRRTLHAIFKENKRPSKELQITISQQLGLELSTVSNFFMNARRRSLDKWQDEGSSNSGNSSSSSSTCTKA
# test.protocol: ATG_HNF6_CIS: Attagene CIS-FACTORIAL HepG2 Assay for human Hepatocyte Nuclear Factor 6 (HNF6) (AID 2282952)
# recorded.conditions: HepG2 Attagene cis-factorial HNF6 reporter transcription; actives raise or lower the signal
Active and inactive are the calls of the source. How the source made its calls: active means hit-call score of the fitted dose curve at least 0.9, where 1 is the maximum; inactive means score below 0.9.
observation.type: outcome

- compound: "Cc1ccc(S(=O)(=O)NC(=O)NN2CCCCCC2)cc1"
  result: "inactive"
- compound: "CNC(C)=O"
  result: "inactive"
- compound: "Cc1nc(-c2ccccn2)ncc1C(=O)Nn1cc(C)c2cc(F)ccc21"
  result: "inactive"
- compound: "O=c1[nH]cnc2c1ncn2[C@H]1CC[C@@H](CO)O1"
  result: "inactive"
- compound: "O=C(O)c1cccc(C[C@@H]2COc3ccc(OCc4nc5cc(F)ccc5s4)cc3[C@@H]2O)c1"
  result: "inactive"
- compound: "C[C@]12C=CC(=O)C=C1CC[C@H]1[C@@H]3C[C@@H](O)[C@](O)(C(=O)CO)[C@@]3(C)C[C@H](O)[C@@]12F"
  result: "inactive"
- compound: "NCC(F)(F)C(F)(F)C(F)(F)C(F)(F)F"
  result: "inactive"
- compound: "CC(C)CCCCCCOC(=O)C1CCCCC1C(=O)OCCCCCCC(C)C (configuration not stated)"
  result: "inactive"
- compound: "c1ccc2ncccc2c1"
  result: "inactive"
- compound: "O=S1(=O)CCCO1"
  result: "inactive"
- compound: "CCCCCCOC(=O)CC(CC(=O)OCCCCCC)(OC(=O)CCC)C(=O)OCCCCCC"
  result: "inactive"
- compound: "COS(C)(=O)=O"
  result: "inactive"

----------
# Read-out: matrix metalloproteinase-3 (MMP3), MMP3 (gene 4314)
# test.protocol: LTEA_HepaRG_MMP3: Life Technologies and Expression Analysis (LTEA) Assay for matrix metalloproteinase-3 (MMP3) using HepaRG (AID 2283519)
# recorded.conditions: mRNA level, 48 h; actives raise or lower the signal
The source made the active and inactive calls. How the source made its calls: active means hit-call score of the fitted dose curve at least 0.9, where 1 is the maximum; inactive means score below 0.9.
Labels: 1 (active), 0 (inactive)

- line.notation: "NC(=O)NN=Cc1ccc([N+](=O)[O-])o1"
  classification: 1
- line.notation: "CC(C)C(=O)Nc1ccc([N+](=O)[O-])c(C(F)(F)F)c1"
  classification: 1
- line.notation: "c1ccc2c(c1)-c1cccc3c1c-2cc1ccccc13"
  classification: 0
- line.notation: "NC(=O)N(O)[C@@H]1COc2cc(OCc3ccccc3)ccc21"
  classification: 0
- line.notation: "CCCCCCOC(=O)CC(CC(=O)OCCCCCC)(OC(=O)CCC)C(=O)OCCCCCC"
  classification: 0
- line.notation: "Cc1ncc([C@@H](CCCCCCc2ccc3c(n2)NCCC3)CC(=O)O)cn1"
  classification: 1

----------
# subject.of.test: Ratio of Nucleoli Translocation and Cytoplasm, AR (gene 367) (UniProt P10275)
# Sequence (P10275 whole entry, looked up): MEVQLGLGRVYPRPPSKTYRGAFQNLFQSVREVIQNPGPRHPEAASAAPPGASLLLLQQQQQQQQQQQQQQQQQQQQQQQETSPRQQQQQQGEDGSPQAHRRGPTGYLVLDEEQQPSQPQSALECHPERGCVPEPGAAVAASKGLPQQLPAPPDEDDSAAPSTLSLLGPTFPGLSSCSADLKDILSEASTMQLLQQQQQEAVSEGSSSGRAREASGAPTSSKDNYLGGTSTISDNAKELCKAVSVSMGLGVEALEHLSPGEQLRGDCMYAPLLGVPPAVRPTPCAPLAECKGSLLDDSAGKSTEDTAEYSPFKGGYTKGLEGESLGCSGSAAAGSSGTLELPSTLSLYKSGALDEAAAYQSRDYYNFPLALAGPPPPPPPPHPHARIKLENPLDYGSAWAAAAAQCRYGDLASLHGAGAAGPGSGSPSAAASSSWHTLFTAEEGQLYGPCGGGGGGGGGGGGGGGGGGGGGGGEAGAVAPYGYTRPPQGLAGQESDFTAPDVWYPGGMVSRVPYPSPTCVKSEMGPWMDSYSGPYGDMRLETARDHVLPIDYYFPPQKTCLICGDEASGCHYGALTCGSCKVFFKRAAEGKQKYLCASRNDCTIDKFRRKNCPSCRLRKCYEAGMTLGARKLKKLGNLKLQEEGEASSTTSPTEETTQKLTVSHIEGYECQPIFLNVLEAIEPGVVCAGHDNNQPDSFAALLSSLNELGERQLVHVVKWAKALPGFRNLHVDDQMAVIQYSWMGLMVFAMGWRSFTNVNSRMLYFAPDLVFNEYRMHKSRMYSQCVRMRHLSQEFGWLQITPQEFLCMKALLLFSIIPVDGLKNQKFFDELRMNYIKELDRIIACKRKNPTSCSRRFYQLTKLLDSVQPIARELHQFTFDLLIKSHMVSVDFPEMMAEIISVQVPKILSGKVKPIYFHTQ
# test.protocol: UPITT_HCI_U2OS_AR_TIF2_Nucleoli_Cytoplasm_Ratio_Agonist: University of Pittsburgh U2OS Androgen Receptor-Transcriptional Intermediary Factor 2 (AR-TIF2) Agonism High Content Imaging Assay for Ratio of Nucleoli Translocation and Cytoplasm (AID 2284000);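 note: hits raise the red nucleolar to cytoplasm ratio above vehicle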
Inconclusive results are not listed. Active and inactive are the calls of the source. How the source made its calls: active means hit-call score of the fitted dose curve at least 0.9, where 1 is the maximum; inconclusive means response in the unintended direction; inactive means score below 0.9.
Labels: active, inactive

- line.notation: "CCCCCCOC(=O)CC(CC(=O)OCCCCCC)(OC(=O)CCC)C(=O)OCCCCCC"
  classification: "inactive"
- line.notation: "COc1cc2c(c(OC)c1OC)-c1ccc(OC)c(=O)cc1[C@@H](NC(C)=O)CC2"
  classification: "inactive"
- line.notation: "CCN(CC)C(=S)SSC(=S)N(CC)CC"
  classification: "active"
- line.notation: "C=CCc1cc(S(=O)(=O)c2ccc(O)c(CC=C)c2)ccc1O"
  classification: "inactive"
- line.notation: "OCCOCCOCCO"
  classification: "inactive"
- line.notation: "CCCCOC(=O)c1ccccc1"
  classification: "inactive"
- line.notation: "CCc1cccc(CC)c1N"
  classification: "inactive"
- line.notation: "COc1cc(C(C)C)c2c(c1)S(=O)(=O)N(COc1cc(=O)n3cccc(OCCN4CCCCC4)c3n1)C2=O"
  classification: "inactive"

----------
# Read-out: growth arrest and DNA damage 45 (GADD45G), GADD45G (gene 10912)
# test.protocol: LTEA_HepaRG_GADD45G: Life Technologies and Expression Analysis (LTEA) Assay for growth arrest and DNA damage 45 (GADD45G) using HepaRG (AID 2283499)
# recorded.conditions: mRNA level, 48 h; actives raise or lower the signal
Active and inactive are the calls of the source. Rule for the calls: active = hit-call score of the fitted dose curve at least 0.9, where 1 is the maximum; inactive = score below 0.9.
Labels: active, inactive

- line.notation: "NC(N)=O"
  classification: "inactive"
- line.notation: "CCc1ccc(O)c(C(C)(C)C)c1"
  classification: "inactive"
- line.notation: "CC(=O)c1ccccc1"
  classification: "inactive"
- line.notation: "O=C(NO)C1(NS(=O)(=O)c2ccc(Oc3ccc(F)cc3)cc2)CCOCC1"
  classification: "active"
- line.notation: "COc1cc2c(c(OC)c1OC)-c1ccc(OC)c(=O)cc1[C@@H](NC(C)=O)CC2"
  classification: "active"
- line.notation: "OCCNCCO"
  classification: "inactive"
- line.notation: "Cc1ccc(S(=O)(=O)NC(=O)NN2CCCCCC2)cc1"
  classification: "inactive"

Ref: PubChem BioAssay (EPA / NIEHS)
